Below: a set of entries, each annotated with reported IC50.
System: agonist-induced platelet aggregation
protocol-description: Platelet Aggregation Assay
Assay type: cell-based
particulars: Homo sapiens, Platelet, human platelet-rich plasma, class symbols

The examples below pair each entry with its known result.
compound="NCCOc1ccc(OCc2ccccc2)c(C(=O)/C=C/c2ccc(OCC(=O)O)c(C(=O)OCC(=O)O)c2)c1 [Example 43]" readout_value="< 10 µM"
compound="CCOC(=O)c1cc(/C=C/C(=O)c2cc(OCC)cc(OCCN)c2)ccc1OCC(=O)O [Example 20]" readout_value="10 to 50 µM"

Problem: Can you share its IC50? I mean this compound: NCCOc1cccc(C(=O)CCc2ccc(OCC(=O)O)cc2)c1 [Example 126]
Solution: 51 to 100 µM
